# System: TK-10 renal
# Run Description: NCI tumour cell line growth inhibition, 48 h
Measured Attribute: TGI

Exam item: Identify measured TGI associated with Cc1cc2c(-c3nc4ccccn4c3NC34CC5CC(CC(C5)C3)C4)c(O)c(O)cc2c(O)c1-c1c(C)cc2c(-c3nc4ccccn4c3NC34CC5CC(CC(C5)C3)C4)c(O)c(O)cc2c1O
Marked response: > 25 µM

Exam item: Identify measured TGI associated with CC(C)c1ccc2c(c1)c(SC(C)(C)C)c(CC(C)(C)C(=O)O)n2Cc1ccc(Cl)cc1
Marked response: 30.6 µM

Exam item: Identify measured TGI associated with COc1ccc2c(c1)CCC(CN1CCN(CCOC(c3ccccc3)c3ccccc3)CC1)C2O (configuration not stated)
Marked response: 28.6 µM

Exam item: Identify measured TGI associated with COc1ccc(-c2conc2-c2ccccc2)cc1
Marked response: > 100 µM

Exam item: Identify measured TGI associated with CN1CCN(CCCOc2ccc3ncnc(Nc4ccc(Oc5cccc(F)c5)c(Cl)c4)c3c2)CC1
Marked response: 2.32 µM

Exam item: Identify measured TGI associated with Cc1ccc2nc(Nc3ccccc3C)c(Nc3ccccc3C)nc2c1
Marked response: > 92.7 µM

Exam item: Identify measured TGI associated with CCOc1cccc(/C=N/NC(=O)Cc2ccc(Nc3ccnc(C(F)(F)F)c3)cc2)c1O
Marked response: 44.5 µM

Exam item: Identify measured TGI associated with COc1ccc(C2NC(=S)NC3=C2COc2ccc(F)cc23)cc1OC (configuration not stated)
Marked response: > 100 µM

Exam item: Identify measured TGI associated with C=C1C[C@@H]2CC[C@@]34CC5O[C@H]6C(O[C@H]7CC[C@H](CC(=O)O[C@@H]8[C@@H](C)[C@@H]9O[C@@H]%10C[C@]%11(C[C@@H]%12O[C@]%13(C[C@H](C)[C@@H]%14O[C@@H]%15CC(C(COC(C)=O)OC(C)=O)O[C@@H]%15C[C@@H]%14O%13)C[C@H](C)[C@@H]%12O%11)O[C@@H]%10C[C@@H]9O[C@H]8CC8O[C@@H](CC[C@@H]1O2)C[C@@H](C)C8(O)CO)O[C@@H]7[C@@H]6O3)[C@H]5O4 (some centres not stated)
Marked response: > 1 µM

Exam item: Identify measured TGI associated with Cc1cc([C@H](C)Nc2nccc(N3C(=O)OC[C@@H]3[C@H](C)F)n2)ncc1-c1ccnc(C(F)(F)F)c1
Marked response: > 100 µM

Exam item: Identify measured TGI associated with CCCCCCCCCCCCNC(=O)[C@H]1CSC(c2ccsc2)N1 (some centres not stated)
Marked response: 1.63 µM

Exam item: Identify measured TGI associated with O=C1CCCC2=C1CC1=C(CCCC1=O)N2c1ccc(-c2ccccc2)cc1
Marked response: > 100 µM

Exam item: Identify measured TGI associated with Nn1nnc2ccccc21
Marked response: > 100 µM

Exam item: Identify measured TGI associated with O=c1ncccn1C1OC(CO)C(O)C1F (configuration not stated)
Marked response: > 100 µM

Exam item: Identify measured TGI associated with Nc1cc2nc(-c3ccccc3)cn2cn1
Marked response: > 100 µM

Exam item: Identify measured TGI associated with Oc1ccc(C[C@@H]2CN[C@H](Cc3ccc(O)c(Br)c3)CN2)cc1
Marked response: > 100 µM

Exam item: Identify measured TGI associated with CC(=O)OC1Oc2cc(C)c(C)cc2-c2oc(=O)c(-c3ccccc3)cc21 (configuration not stated)
Marked response: > 44.9 µM

====

# Tested on: SNB-75 CNS
# Run Description: NCI tumour cell line growth inhibition, 48 h; in the data active = GI50 below about 0.43 µM; inactive = the rest
Can you answer with just one of these options? yes (1) (active), no (0) (inactive)

Exam item: Recorded call for Cc1cc(C(=O)Nc2cc(Nc3ncccc3-c3ncnc4nc[nH]c34)ccc2F)cc(C(C)(C)C#N)c1 ?
Marked response: no (0)

Exam item: Recorded call for CCCCCCCCCCCCNC(=O)[C@H]1CSC(c2ccsc2)N1 (some centres undefined) ?
Marked response: no (0)

Exam item: Recorded call for COc1ccccc1-c1nccc(COc2ccccc2C[C@@H](Oc2ncnc3sc(-c4ccc(F)cc4)c(-c4ccc(OCCN5CCN(C)CC5)c(Cl)c4C)c23)C(=O)O)n1 ?
Marked response: yes (1)

Exam item: Recorded call for CCCCCCCCCCCCCCCCCCNC(=O)[C@H]1CSC(c2ccc(F)c(OC)c2)N1 (some centres undefined) ?
Marked response: no (0)

Exam item: Recorded call for CCOc1cccc(/C=N/NC(=O)Cc2ccc(Nc3ccnc(C(F)(F)F)c3)cc2)c1O ?
Marked response: no (0)

Exam item: Recorded call for N#CC1=C(N)Oc2c(sc3c(Br)cccc23)C1c1ccc(F)cc1 (centres undefined) ?
Marked response: yes (1)

Exam item: Recorded call for COc1ccc(-c2conc2-c2ccccc2)cc1 ?
Marked response: yes (1)

Exam item: Recorded call for CCc1ccc(OCc2ccccc2C(=O)Nc2ccc3nc(C)cc(N)c3c2)cc1 ?
Marked response: no (0)

Exam item: Recorded call for COc1ccc(-c2nn(-c3cccc(Cl)c3)cc2/C=C2\C(=N)N(c3ccccc3)N=C2N)cc1 ?
Marked response: no (0)

Exam item: Recorded call for Fc1ccc(-c2cc(-c3cn[nH]c3-c3ccccn3)ccn2)cc1 ?
Marked response: no (0)

Exam item: Recorded call for CC(=O)Nc1ccc2c(c1)CN1C(=O)c3ccccc3C1=N2 ?
Marked response: no (0)

Exam item: Recorded call for NC1(C(=O)O)CSSC1 ?
Marked response: no (0)

Exam item: Recorded call for Cc1ccc(NCCNCC(O)CO)c2c(=O)c3ccccc3sc12 (centres undefined) ?
Marked response: no (0)

Exam item: Recorded call for O=c1c2ccccc2c(=O)c2c1sc1c(=O)c3ccc(O)cc3c(=O)c12 ?
Marked response: yes (1)

====

# Tested on: DMS 273 small cell lung
# Run Description: NCI tumour cell line growth inhibition, 48 h
Measured Attribute: log10 TGI (log10 of the value in µM)
Note the log scale: values are log10 of TGI expressed in µM.

Exam item: Identify measured log10 TGI associated with CCCC/C=C1\CCC(CN2CCCC2)C1=O (configuration not stated)
Marked response: 1.54

Exam item: Identify measured log10 TGI associated with COc1cc2c(c(OC)c1OC)-c1ccc(SC)c(=O)cc1[C@@H](NC(=O)c1ccc(F)cc1)CC2
Marked response: 1.65

Exam item: Identify measured log10 TGI associated with C/C(N=NC(=S)N1CCCCCC1)=C1\C=CC=CN1O
Marked response: 1.62

Exam item: Identify measured log10 TGI associated with O=C1c2c(O)ccc(O)c2C(=O)c2c(NCCNCCO)ccc(NCCNCCO)c21
Marked response: -0.24

Exam item: Identify measured log10 TGI associated with CC12O[Te]34OC1(C)C(C)(O3)C2(C)O4
Marked response: 1.58

Exam item: Identify measured log10 TGI associated with CN1C=C(C(N)=O)C2CC(O)[C@@](NC(=O)CS(N)(=O)=O)(C(=O)O)C2C1 (some centres not stated)
Marked response: 0.99

Exam item: Identify measured log10 TGI associated with C=C1C(=O)C23CC1CCC2C12CO[C@@]3(O)[C@@H](O)C1C(C)(C)C=CC2=O (some centres not stated)
Marked response: 0.11

====

Exercise: for every item that follows, state its recorded GI50.
# Test system: EKVX NSCLC
# Run Description: NCI tumour cell line growth inhibition, 48 h

Exam item: Identify measured GI50 associated with Cc1ccc(NCCNCC(O)CO)c2c(=O)c3ccccc3sc12 (centres undefined)
Marked response: 1830 nM

Exam item: Identify measured GI50 associated with NC1(C(=O)O)CSSC1
Marked response: 4490 nM

Exam item: Identify measured GI50 associated with N#CC1=C(N)Oc2c(sc3c(Br)cccc23)C1c1ccc(F)cc1 (centres undefined)
Marked response: 534 nM

Exam item: Identify measured GI50 associated with O=c1c2ccccc2c(=O)c2c1sc1c(=O)c3ccc(O)cc3c(=O)c12
Marked response: 1340 nM

====

Exercise: for every item that follows, state its recorded TGI.
# Tested on: MDA-MB-435
# Run Description: NCI tumour cell line growth inhibition, 48 h

Exam item: Identify measured TGI associated with O/N=C/[C@H]1COC2(CCCCC2)O1
Marked response: > 100 µM

Exam item: Identify measured TGI associated with CC1=CC(O)CC(C)(C)C1/C=C/C(C)=C/C=C/C(C)=C/C=C/C=C(C)/C=C/C=C(C)/C=C/C1=C(C)CC(O)CC1(C)C (stereo unspecified)
Marked response: 33.9 µM

Exam item: Identify measured TGI associated with CN(C)C(=O)/N=C1\SC(=Nc2ccccc2)C(=Nc2ccccc2)N1c1ccc([N+](=O)[O-])cc1
Marked response: > 100 µM

Exam item: Identify measured TGI associated with COc1ccc2c(c1)c(-c1cc(-c3cn(C)c4ccc(OC)cc34)[nH]n1)cn2C
Marked response: > 100 µM

Exam item: Identify measured TGI associated with CCOP(=O)(COCCn1nc(Br)c(=O)[nH]c1=O)OCC
Marked response: > 100 µM

Exam item: Identify measured TGI associated with O=C(O)C(O)c1ccc(F)cc1 (stereo unspecified)
Marked response: > 100 µM

Exam item: Identify measured TGI associated with COc1ccc(-c2nn(-c3cccc(Cl)c3)cc2-c2cc(-c3cccs3)no2)cc1
Marked response: 17.3 µM

Exam item: Identify measured TGI associated with Brc1ccc(/C(N=N/C(=N\Sc2ccccc2)c2ccc(Br)cc2)=N/Sc2ccccc2)cc1
Marked response: > 100 µM

Exam item: Identify measured TGI associated with O=C1c2c(Br)sc(Br)c2[C@H]2OC(=S)N[C@@H]12
Marked response: 8.65 µM

Exam item: Identify measured TGI associated with O=c1n(CCCN2CCOCC2)nc2n1-c1ccc3ccccc3c1SC2
Marked response: > 100 µM

Exam item: Identify measured TGI associated with CC(=O)Nc1ccc2c(c1)nc1c3ccccc3ccn21
Marked response: > 100 µM

Exam item: Identify measured TGI associated with COC12C=C/C(=C(/C(=O)OCc3csc(SC)n3)C(=O)CCCCCCCCC3(OC)C=C/C(=C(/C(=O)OCc4cnc(SC)s4)C(=O)CCCCCCCC1)O3)O2 (stereo unspecified)
Marked response: 5.32 µM

Exam item: Identify measured TGI associated with Cc1cc(S(N)(=O)=O)c(S/C(=N\NS(=O)(=O)c2ccccc2)c2ccc(Cl)c(Cl)c2)cc1Cl
Marked response: > 100 µM

Exam item: Identify measured TGI associated with CC1=[N+]([O-])C2(CCCC2)N(O)C1(C)C
Marked response: > 100 µM

Exam item: Identify measured TGI associated with Cc1ccc(S(=O)c2ccc([N+](=O)[O-])c3nonc23)cc1 (stereo unspecified)
Marked response: 26 µM

Exam item: Identify measured TGI associated with O=c1[nH]nc(-c2ccc([N+](=O)[O-])cc2)[nH]1
Marked response: > 100 µM

Exam item: Identify measured TGI associated with CCOP(=O)(CC1OC(CO)C(O)C1O)OCC (stereo unspecified)
Marked response: > 100 µM

Exam item: Identify measured TGI associated with CC(=O)Oc1ccc2c(c1)O/C(=C\c1ccc(O)cc1)C2=O
Marked response: > 100 µM

Exam item: Identify measured TGI associated with O=C(O[C@@H](/C=C/c1ccccc1)P1(=O)N(Cc2ccccc2)[C@@H]2CCCC[C@H]2N1Cc1ccccc1)c1ccccc1
Marked response: 68.7 µM

Exam item: Identify measured TGI associated with COC(=O)c1ccc2cc(O)ccc2c1
Marked response: > 100 µM

Exam item: Identify measured TGI associated with COC(=O)C1=C(C(=O)OC)C(C(=O)OC)C(C(=O)OC)C(C(=O)OC)(C(=O)OC)C(C(=O)OC)=C1C(=O)OC (stereo unspecified)
Marked response: 37.5 µM
